TEST_METHOD_NOTES: Cytotoxicity against Balb/c mouse peritoneal macrophages assessed as reduction in cell viability after 72 hrs by resazurin assay
Type: cell-based, Peritoneal macrophage
Measured CC50 at 72 h, listed per entry for reference.
Hi! Could you send only the number? It should be in µM, unit omitted.

Worked set:
[
  {
    "MOLECULE": "CC1(Cc2ccccc2C(F)(F)F)CC(S(=O)(=O)c2ccc(F)cc2)=C(c2ccc(/C(N)=N/O)cc2)O1 (stereo not drawn)",
    "MEASUREMENT_NAME": "CC50 at 72 h",
    "RESULT_VALUE": 105
  },
  {
    "MOLECULE": "CC1(Cc2ccc([N+](=O)[O-])cc2)CC(S(=O)(=O)c2ccc(F)cc2)=C(c2ccc(/C(N)=N/O)cc2)O1 (stereo not drawn)",
    "MEASUREMENT_NAME": "CC50 at 72 h",
    "RESULT_VALUE": 97.4
  },
  {
    "MOLECULE": "CC1(Cc2cccc(/C(N)=N/O)c2)CC(S(=O)(=O)c2ccc(F)cc2)=C(c2ccc(/C(N)=N/O)cc2)O1 (stereo not drawn)",
    "MEASUREMENT_NAME": "CC50 at 72 h",
    "RESULT_VALUE": 50.2
  },
  {
    "MOLECULE": "CC1(C/C=C/c2ccc(C(F)(F)F)cc2)CC(S(=O)(=O)c2ccc(F)cc2)=C(c2ccc(/C(N)=N/O)cc2)O1 (stereo not drawn)",
    "MEASUREMENT_NAME": "CC50 at 72 h",
    "RESULT_VALUE": 43.9
  }
]

Switching to the query record.
Please fill in: CC50 at 72 h reported for `CCC1(CC)CC(S(=O)(=O)c2ccc(F)cc2)=C(c2ccc(/C(N)=N/O)cc2)O1` = 91.4

====

Some compounds, each annotated with its measured selectivity ratio.
TEST_METHOD_NOTES: Selectivity index, ratio of CC50 for cytotoxicity against Balb/c mouse peritoneal macrophages to IC50 for antileishmanial activity against Leishmania amazonensis MHOM/BR/77/LTB0016 promastigotes
Assay type: toxicity
SETUP_CONDITIONS: read-out: Ratio CC50/IC50
When you answer, write just the number.

Guide cases for selectivity ratio, answers given:
[
  {
    "COMPOUND": "N=C(N)c1ccc(OCCCCCOc2ccc(C(=N)N)cc2)cc1",
    "RESULT_VALUE": 1.5
  },
  {
    "COMPOUND": "Cc1ccccc1CC1(C)CC(S(=O)(=O)c2ccc(F)cc2)=C(c2ccc(/C(N)=N/O)cc2)O1 (stereo not drawn)",
    "RESULT_VALUE": 37
  }
]

Reported selectivity ratio ( `N/C(=N\O)c1ccc(C2=C(S(=O)(=O)c3ccc(F)cc3)CC3(CCCCC3)O2)cc1` ) = 1.9

// CC1(C/C=C/c2ccc(C(F)(F)F)cc2)CC(S(=O)(=O)c2ccc(F)cc2)=C(c2ccc(/C(N)=N/O)cc2)O1 (stereo not drawn) : selectivity ratio value = 2.6

selectivity ratio measured on CC1(Cc2ccc([N+](=O)[O-])cc2)CC(S(=O)(=O)c2ccc(F)cc2)=C(c2ccc(/C(N)=N/O)cc2)O1 (stereo not drawn) = 5.8

Summary for this compound, CC1(Cc2ccc(C(F)(F)F)cc2)CC(S(=O)(=O)c2ccc(F)cc2)=C(c2ccc(/C(N)=N/O)cc2)O1 (stereo not drawn) : selectivity ratio is 12.6

For CC1(Cc2ccccc2C(F)(F)F)CC(S(=O)(=O)c2ccc(F)cc2)=C(c2ccc(/C(N)=N/O)cc2)O1 (stereo not drawn) the compound record lists selectivity ratio as 21.9

According to the records, this compound CC1(Cc2cc(C(F)(F)F)cc(C(F)(F)F)c2)CC(S(=O)(=O)c2ccc(F)cc2)=C(c2ccc(/C(N)=N/O)cc2)O1 (stereo not drawn) displays selectivity ratio of 8

Values from ChEMBL document CHEMBL4196020
